Hey, just so you know, these numbers are from patent US20230212549A1.

# Experiment Notes: Pharmacokinetic study in mice (plasma, NCA)
# Experimental Context: mouse, intravenous, 40 nmol/kg
Readout Kind: C0
Mention the unit after the number when you answer.

The recorded C0 for CCCCCC(=O)N[C@H]1CSCc2cc(CSCCNC(=O)CN3CCN(CC(=O)O)CCN(CC(=O)O)CCN(CC(=O)O)CC3)cc(c2)CSC[C@@H](C(=O)O)NC(=O)[C@H](Cc2ccccc2)NC(=O)[C@H](CCC(N)=O)NC(=O)[C@H]([C@@H](C)O)NC(=O)[C@@H]2CCCN2C(=O)[C@@H]2CCCN2C1=O is 228 nM

* * *

# Experimental System: NMDA
# Experimental Context: read-out: Ki Ref; reference compound (positive control)
Readout Kind: pKi
Friendly reminder that pKi comes from taking -log10 of the concentration in mol/L.

Bench note, NMDA: entry O=C(O)[C@@H]1C[C@H](CP(=O)(O)O)CCN1 [CGS 19755] , its pKi = 6.85
